Listing: IC50 at 48 h of selected compounds
PROTOCOL_NOTES: Cytotoxicity against human WI38 cells assessed as reduction in cell viability after 48 hrs by MTT assay
Format: toxicity, cell-based, WI-38
Give the value, in units of µM, as a plain number.

Here are 5 compounds together with their reported answers.
{"SMILES_NOTATION": "Cc1ccc(C(=O)/C=C/c2ccc3c(c2)B(O)OC3)cc1", "MEASUREMENT_UNIT": "µM", "IC50 at 48 h": 22.2}
{"SMILES_NOTATION": "COc1cc(C(=O)/C=C/c2ccc3c(c2)B(O)OC3)cc(OC)c1OC", "MEASUREMENT_UNIT": "µM", "IC50 at 48 h": 18.5}
{"SMILES_NOTATION": "O=C(/C=C/c1ccc2c(c1)B(O)OC2)c1cccs1", "MEASUREMENT_UNIT": "µM", "IC50 at 48 h": 26}
{"SMILES_NOTATION": "O=C(/C=C/c1ccc2c(c1)B(O)OC2)c1ccc(C(F)(F)F)cc1", "MEASUREMENT_UNIT": "µM", "IC50 at 48 h": 22.6}
{"SMILES_NOTATION": "CSc1ccc(C(=O)/C=C/c2ccc3c(c2)B(O)OC3)cc1", "MEASUREMENT_UNIT": "µM", "IC50 at 48 h": 54.3}

### Prompt What measured IC50 at 48 h goes with O=C(/C=C/c1ccc2c(c1)B(O)OC2)c1cccc(F)c1 ?
### Response 26.7

### Prompt What measured IC50 at 48 h goes with Cc1ccc(C(=O)/C=C/c2ccc3c(c2)B(O)OC3)cc1C ?
### Response 22

### Prompt What measured IC50 at 48 h goes with COCOc1ccccc1C(=O)/C=C/c1ccc2c(c1)B(O)OC2 ?
### Response 27

* * *

PROTOCOL_NOTES: Cytotoxicity against human WI38 cells assessed as reduction in cell viability after 48 hrs by MTT assay
Type: toxicity, cell-based, WI-38
READOUT_TYPE: IC50 at 48 h (µM)
Give the value, in units of µM, as a plain number.

{"SMILES_NOTATION": "COc1ccccc1C(=O)/C=C/c1ccc2c(c1)B(O)OC2", "IC50 at 48 h / µM": 21.7}

### Prompt What measured IC50 at 48 h goes with O=C(/C=C/c1ccc2c(c1)B(O)OC2)c1ccc([N+](=O)[O-])cc1 ?
### Response 39.3

### Prompt What measured IC50 at 48 h goes with CCc1ccc(C(=O)/C=C/c2ccc3c(c2)B(O)OC3)cc1 ?
### Response 20.6

### Prompt What measured IC50 at 48 h goes with O=C(/C=C/c1ccc2c(c1)B(O)OC2)c1ccccc1F ?
### Response 23.6

* * *

PROTOCOL_NOTES: Cytotoxicity against human MCF10A cells assessed as reduction in cell viability after 48 hrs by MTT assay
Assay type: toxicity, cell-based, MCF-10A
Listing: IC50 at 48 h of selected compounds
Give the value, in units of µM, as a plain number.

Here are 5 compounds together with their reported answers.
{"SMILES_NOTATION": "Nc1cccc(C(=O)/C=C/c2ccc3c(c2)B(O)OC3)c1", "READOUT_TYPE": "IC50 at 48 h", "MEASUREMENT": 19.6}
{"SMILES_NOTATION": "CCc1ccc(C(=O)/C=C/c2ccc3c(c2)B(O)OC3)cc1", "READOUT_TYPE": "IC50 at 48 h", "MEASUREMENT": 8.8}
{"SMILES_NOTATION": "COc1cc(C(=O)/C=C/c2ccc3c(c2)B(O)OC3)cc(OC)c1OC", "READOUT_TYPE": "IC50 at 48 h", "MEASUREMENT": 48.5}
{"SMILES_NOTATION": "COc1cc(C(=O)/C=C/c2ccc3c(c2)B(O)OC3)ccc1[N+](=O)[O-]", "READOUT_TYPE": "IC50 at 48 h", "MEASUREMENT": 3.6}
{"SMILES_NOTATION": "O=C(/C=C/c1ccc2c(c1)B(O)OC2)c1ccc(F)cc1", "READOUT_TYPE": "IC50 at 48 h", "MEASUREMENT": 11.8}

### Prompt What measured IC50 at 48 h goes with COCOc1ccccc1C(=O)/C=C/c1ccc2c(c1)B(O)OC2 ?
### Response 11.7

### Prompt What measured IC50 at 48 h goes with O=C(/C=C/c1ccc2c(c1)B(O)OC2)c1cccc2ccccc12 ?
### Response 13.4

### Prompt What measured IC50 at 48 h goes with O=C(/C=C/c1ccc2c(c1)B(O)OC2)c1ccccc1F ?
### Response 25.4

### Prompt What measured IC50 at 48 h goes with O=C(/C=C/c1ccc2c(c1)B(O)OC2)c1cccnc1 ?
### Response 34.4

### Prompt What measured IC50 at 48 h goes with O=C(/C=C/c1ccc2c(c1)B(O)OC2)c1ccc(Br)cc1 ?
### Response 27.8

### Prompt What measured IC50 at 48 h goes with O=C(/C=C/c1ccc2c(c1)B(O)OC2)c1ccc([N+](=O)[O-])cc1 ?
### Response 17.5

### Prompt What measured IC50 at 48 h goes with COc1cccc2c1C(=O)c1c(O)c3c(c(O)c1C2=O)C[C@@](O)(C(=O)CO)C[C@@H]3O[C@H]1C[C@H](N)[C@H](O)[C@H](C)O1 ?
### Response 0.06

* * *

PROTOCOL_NOTES: Cytotoxicity against human MCF10A cells assessed as reduction in cell viability after 48 hrs by MTT assay
Assay type: toxicity, cell-based, MCF-10A
READOUT_TYPE: IC50 at 48 h (µM)
Give the value, in units of µM, as a plain number.

Here are 6 compounds together with their reported answers.
{"SMILES_NOTATION": "COc1ccc(C(=O)/C=C/c2ccc3c(c2)B(O)OC3)cc1OC", "MEASUREMENT": 13.5}
{"SMILES_NOTATION": "Nc1ccc(C(=O)/C=C/c2ccc3c(c2)B(O)OC3)cc1", "MEASUREMENT": 19.9}
{"SMILES_NOTATION": "O=C(/C=C/c1ccc2c(c1)B(O)OC2)c1cccs1", "MEASUREMENT": 13.8}
{"SMILES_NOTATION": "O=C(/C=C/c1ccc2c(c1)B(O)OC2)c1ccc(Cl)cc1", "MEASUREMENT": 12.1}
{"SMILES_NOTATION": "O=C(/C=C/c1ccc2c(c1)B(O)OC2)c1ccccc1", "MEASUREMENT": 15.9}
{"SMILES_NOTATION": "Cc1ccc(C(=O)/C=C/c2ccc3c(c2)B(O)OC3)cc1", "MEASUREMENT": 8.3}

Now for the compound whose IC50 at 48 h we want.
### Prompt What measured IC50 at 48 h goes with O=C(/C=C/c1ccc2c(c1)B(O)OC2)c1ccc(-c2ccccc2)cc1 ?
### Response 20.7

* * *

PROTOCOL_NOTES: Cytotoxicity against human WI38 cells assessed as reduction in cell viability after 48 hrs by MTT assay
Type: toxicity, cell-based, WI-38
READOUT_TYPE: IC50 at 48 h

### Prompt What measured IC50 at 48 h goes with Cn1cccc1C(=O)/C=C/c1ccc2c(c1)B(O)OC2 ?
### Response > 100 µM

### Prompt What measured IC50 at 48 h goes with O=C(/C=C/c1ccc2c(c1)B(O)OC2)c1ccc(O)c(O)c1 ?
### Response > 100 µM

### Prompt What measured IC50 at 48 h goes with O=C(/C=C/c1ccc2c(c1)B(O)OC2)c1ccc(I)cc1 ?
### Response > 100 µM

* * *

PROTOCOL_NOTES: Cytotoxicity against human WI38 cells assessed as reduction in cell viability after 48 hrs by MTT assay
Type: toxicity, cell-based, WI-38
READOUT_TYPE: IC50 at 48 h

### Prompt What measured IC50 at 48 h goes with COc1cc(C(=O)/C=C/c2ccc3c(c2)B(O)OC3)ccc1N ?
### Response > 100 µM

### Prompt What measured IC50 at 48 h goes with O=C(/C=C/c1ccc2c(c1)B(O)OC2)c1ccccc1O ?
### Response > 100 µM

### Prompt What measured IC50 at 48 h goes with O=C(/C=C/c1ccc2c(c1)B(O)OC2)c1ccc(OCc2ccccc2)cc1 ?
### Response > 100 µM

* * *

PROTOCOL_NOTES: Cytotoxicity against human MCF10A cells assessed as reduction in cell viability after 48 hrs by MTT assay
Type: toxicity, cell-based, MCF-10A
READOUT_TYPE: log10 of IC50 at 48 h (log10 of the value in µM)
A value of 2 here means IC50 at 48 h of 100 in µM, since values are log10.

{"SMILES_NOTATION": "O=C(/C=C/c1ccc2c(c1)B(O)OC2)c1cccc(F)c1", "MEASUREMENT": 1.20}
{"SMILES_NOTATION": "COc1cccc(C(=O)/C=C/c2ccc3c(c2)B(O)OC3)c1", "MEASUREMENT": 0.87}
{"SMILES_NOTATION": "O=C(/C=C/c1ccc2c(c1)B(O)OC2)c1ccc2c(c1)OCCO2", "MEASUREMENT": 1.07}

### Prompt What measured log10 of IC50 at 48 h goes with Cc1ccc(C(=O)/C=C/c2ccc3c(c2)B(O)OC3)cc1C ?
### Response 0.67

### Prompt What measured log10 of IC50 at 48 h goes with CSc1ccc(C(=O)/C=C/c2ccc3c(c2)B(O)OC3)cc1 ?
### Response 0.87

### Prompt What measured log10 of IC50 at 48 h goes with COc1cc(C(=O)/C=C/c2ccc3c(c2)B(O)OC3)ccc1N ?
### Response 1.25

meta.source: ChEMBL document CHEMBL3867490
